tested on: Yersinia pseudotuberculosis; assay: growth AUC normalised to DMSO control (fraction of control); higher = less growth inhibition, active = hit call of the paper; settings: 20 µM
Structures can show the parent of a compound that is named as a salt.
Exercise: state measured growth AUC normalised to DMSO control for each of the compounds provided.
Give bare numbers.

Worked examples follow.
{"columns": ["compound", "growth AUC normalised to DMSO control"],
 "data": [
  ["C[C@H](CCC(=O)O)[C@H]1CC[C@H]2[C@@H]3[C@@H](O)C[C@@H]4C[C@H](O)CC[C@]4(C)[C@H]3CC[C@]12C", 1.01],
  ["CC(N)C12CC3CC(CC(C3)C1)C2 (stereo not drawn) [Rimantadine hydrochloride]", 0.869]
]}

Quick request: growth AUC normalised to DMSO control for each listed item, please.
1. CC(CN(C)C)CN1c2ccccc2Sc2ccccc21 (stereo not drawn) [Trimeprazine tartrate]
2. CN(C)CCOC(c1ccccc1)c1ccccc1.Cn1c(=O)c2[nH]c(Cl)nc2n(C)c1=O [Dimenhydrinate]
3. CC1(C)O[C@@H]2C[C@H]3[C@@H]4C[C@H](F)C5=CC(=O)CC[C@]5(C)[C@H]4[C@@H](O)C[C@]3(C)[C@]2(C(=O)CO)O1 [Flurandrenolide]
4. CC1CC(OC(=O)c2ccccc2O)CC(C)(C)C1 (stereo not drawn) [Homosalate]
5. CCOC(=O)n1ccn(C)c1=S

0.999
0.982
0.996
1.01
0.998

I have this compound here, Cc1c(C)c2c(c(C)c1O)CCC(C)(C(=O)O)O2 (stereo not drawn) , and I need its recorded growth AUC normalised to DMSO control.
1.01

###

tested on: Salmonella enterica typhimurium; assay: growth AUC normalised to DMSO control (fraction of control); higher = less growth inhibition, active = hit call of the paper; conditions: 20 µM
Counter-ions that a name gives are not always drawn.
measurementName: growth AUC normalised to DMSO control
Answers are plain numbers.

{"columns": ["compound", "measurementName", "observedMeasurement"],
 "data": [
  ["Cc1c(NC(C)C)c(=O)n(-c2ccccc2)n1C [Isopyrin hydrochloride]", "growth AUC normalised to DMSO control", 1.02]
]}

Hi team, please reply with growth AUC normalised to DMSO control for each item in this list.
1. CCCC1C(=O)N2C(N(C)C)=Nc3ccc(C)cc3N2C1=O (stereo not drawn)
2. CN(C)CCCN1c2ccccc2CCc2ccc(Cl)cc21 [Clomipramine hydrochloride]
3. COC(=O)Nc1nc2cc(C(=O)c3ccccc3)ccc2[nH]1

1: 0.983; 2: 0.992; 3: 0.975

Parameter requested: growth AUC normalised to DMSO control. Apply to each item below.
1. Oc1ncnc2[nH]ncc12
2. COc1cc2nc(N3CCN(C(=O)c4ccco4)CC3)nc(N)c2cc1OC [Prazosin hydrochloride]

1. 0.996
2. 0.993

Required: growth AUC normalised to DMSO control, one value per compound below.
1. CC(=O)O[C@@]12CO[C@@H]1C[C@H](O)[C@@]1(C)C(=O)[C@H](O)C3=C(C)[C@@H](OC(=O)[C@H](O)[C@@H](NC(=O)OC(C)(C)C)c4ccccc4)C[C@@](O)([C@@H](OC(=O)c4ccccc4)[C@H]21)C3(C)C
2. CC(C)(C(=O)c1cccnc1)c1cccnc1

0.995
0.996

###

What growth AUC normalised to DMSO control was measured for each of the following?
tested on: P. vulgatus WT; experiment: growth AUC normalised to DMSO control (median) (fraction of control); higher = less growth inhibition, active = hit call of the paper; conditions: 20 µM
Counter-ions that a name gives are not always drawn.
One number for each entry.

Illustrative cases are given below, each with its answer.
{"columns": ["compound", "measurementName", "observedMeasurement"],
 "data": [
  ["C[C@]1(Cn2ccnn2)[C@H](C(=O)O)N2C(=O)C[C@H]2S1(=O)=O", "growth AUC normalised to DMSO control", 0.57],
  ["C=CC[N@@+]12CC[C@@]34c5ccccc5N5/C=C6/[C@H]7C[C@H]8[C@@]9(CC[N@@+]8(CC=C)C/C7=C/CO)c7ccccc7N(/C=C(/[C@@H](C[C@@H]31)/C(=C\\CO)C2)[C@H]54)[C@@H]69 [Alcuronium chloride]", "growth AUC normalised to DMSO control", 1.06],
  ["C[C@H]1[C@H](OC(=O)CCC(=O)O)O[C@@H]2O[C@@]3(C)CC[C@H]4[C@H](C)CC[C@@H]1[C@@]24OO3 [Artesunate]", "growth AUC normalised to DMSO control", 1],
  ["OCCN1CCN(CC/C=C2/c3ccccc3Sc3ccc(Cl)cc32)CC1 [Zuclopenthixol dihydrochloride]", "growth AUC normalised to DMSO control", 0.962],
  ["CCc1cc(C(N)=S)ccn1 [Ethionamide]", "growth AUC normalised to DMSO control", 0.986]
]}

Below is a list of compounds. For each, state its recorded growth AUC normalised to DMSO control.
1. O=C1CCc2cc(OCCCCc3nnnn3C3CCCCC3)ccc2N1
2. CCCCc1ncc(/C=C(\Cc2cccs2)C(=O)O)n1Cc1ccc(C(=O)O)cc1 [Eprosartan mesylate]

1. 0.98
2. 1.02

###

system: S. enterica typhimurium tolC KO; assay: growth AUC normalised to DMSO control (median) (fraction of control); higher = less growth inhibition, active = hit call of the paper; conditions: 20 µM
I'd appreciate it if you could supply growth AUC normalised to DMSO control values for the items below.
Numbers only.

Could I get growth AUC normalised to DMSO control for every one of these entries?
1. COC(=O)C1=C(C#N)NC(C)=C(C(=O)OC(C)C)C1c1cccc([N+](=O)[O-])c1 (stereo not given)
2. C[N+](C)(CCOc1ccccc1)Cc1ccccc1.O=C([O-])c1cc2ccccc2cc1O [Bephenium hydroxynaphthoate]
3. CC(C)(CO)[C@@H](O)C(=O)NCCC(=O)NCCSSCCNC(=O)CCNC(=O)[C@H](O)C(C)(C)CO

1: 0.922; 2: 0.977; 3: 1

###

test system: P. vulgatus WT; experiment: growth AUC normalised to DMSO control (median) (fraction of control); higher = less growth inhibition, active = hit call of the paper; conditions: 20 µM
Where a name gives a salt, the structure may show the parent alone.
measurementName: growth AUC normalised to DMSO control

{"columns": ["molecule", "growth AUC normalised to DMSO control"],
 "data": [
  ["CCCCC1C(=O)N(c2ccccc2)N(c2ccccc2)C1=O", "1.07 (inactive)"],
  ["Oc1cc(O)c2c(c1)O[C@H](c1ccc(O)c(O)c1)[C@@H](O)C2", "1.01 (inactive)"],
  ["COc1ccc(CC2c3cc(OC)c(OC)cc3CC[N+]2(C)CCC(=O)OCCCCCOC(=O)CC[N+]2(C)CCc3cc(OC)c(OC)cc3C2Cc2ccc(OC)c(OC)c2)cc1OC (configuration not stated) [Atracurium besylate]", "1.04 (inactive)"],
  ["CCN1CCCC(OC(=O)C(c2ccccc2)c2ccccc2)C1 (configuration not stated) [Piperidolate hydrochloride]", "1.04 (inactive)"],
  ["Clc1cc(Cl)c(OCC#CI)cc1Cl", "1.08 (inactive)"]
]}

// each listed molecule needs a value for growth AUC normalised to DMSO control
1. CC(=O)OCC(=O)[C@@]12OC3(CCCC3)O[C@@H]1C[C@H]1[C@@H]3CCC4=CC(=O)C=C[C@]4(C)[C@@]3(F)[C@@H](O)C[C@@]12C [Amcinonide]
2. CCN(CC)CCOCCOC(=O)C1(c2ccccc2)CCCC1 [Carbetapentane citrate]

1. 0.991 (inactive)
2. 1.01 (inactive)

Please give growth AUC normalised to DMSO control, item by item, for the list that follows.
1. O=C(O)c1cc(=O)c2c(OCC(O)COc3cccc4oc(C(=O)O)cc(=O)c34)cccc2o1 [Cromolyn disodium salt]
2. CCCCNC(=O)NS(=O)(=O)c1ccc(C)cc1 [Tolbutamide]
3. C#CCN(C)CCCOc1ccc(Cl)cc1Cl [Clorgyline hydrochloride]
4. CN1[C@@H]2CC[C@H]1C[C@@H](OC(=O)c1c[nH]c3ccccc13)C2 [Tropisetron hydrochloride]
5. O=C(c1ccc(F)cc1)C1CCN(CCn2c(=O)[nH]c3ccccc3c2=O)CC1 [Ketanserin tartrate hydrate]

1: 1.03 (inactive); 2: 1.04 (inactive); 3: 1.01 (inactive); 4: 1.02 (inactive); 5: 1.05 (inactive)

Answer for every listed entry: what is its growth AUC normalised to DMSO control? The entries follow.
1. O=C(NCCO[N+](=O)[O-])c1cccnc1
2. Cc1ccccc1N1C(=O)c2cc(S(N)(=O)=O)c(Cl)cc2NC1C (configuration not stated)
3. CC(=O)Oc1ccccc1C(=O)O

0.996 (inactive)
1 (inactive)
1.01 (inactive)

Each of the following entries comes with a recorded value; kindly state growth AUC normalised to DMSO control for each.
1. CN1CCCN=C1/C=C/c1cccs1 [Pyrantel tartrate]
2. O=C1Cc2cc(CCN3CCN(c4nsc5ccccc45)CC3)c(Cl)cc2N1 [Ziprasidone hydrochloride monohydrate]

["0.982 (inactive)", "1.07 (inactive)"]
